Value source: paper PMC3731320

- System: NOD2
- assay_procedure: MDP-stimulated IL-8 release in 293/hNOD2 cells (HTRF)
- Format: cell-based, human
- test_conditions: Homo sapiens; MDP-stimulated IL-8 production assay in 293/hNOD2 cells; Figures 4 and 5; read-out: NOD2 IC50
pIC50: −log10 of the molar value.
# pIC50 per entry
endpoint_label: pIC50

>>> reported("Cc1ccc(NC(=O)Cn2c(CCNC(=O)c3ccccc3)nc3ccccc32)cc1C")
5.55
>>> reported("CN(CCc1nc2ccccc2n1CC(=O)N(C)c1ccc2c(c1)CCC2)C(=O)c1ccccc1")
4.77
>>> reported("O=C(Cn1c(CCNC(=O)c2ccccc2)nc2ccccc21)Nc1ccc(OCc2ccccc2)cc1")
"< 4.30"
>>> reported("CN(CCc1nc2ccccc2n1CC(=O)Nc1ccc2sccc2c1)C(=O)c1ccccc1")
6.22
>>> reported("O=C(Cn1c(CCNC(=O)c2ccccc2)nc2ccccc21)Nc1ccc(Oc2ccccc2)cc1")
"< 4.30"
>>> reported("O=C(Cn1c(CCNC(=O)c2cccc(C(F)(F)F)c2)nc2ccccc21)Nc1ccc2c(c1)CCC2")
"< 4.30"
>>> reported("COc1ccc2c(c1)nc(CCNC(=O)c1ccccc1)n2CC(=O)Nc1ccc2c(c1)CCC2")
"< 4.30"
>>> reported("O=C(Cn1c(CCNC(=O)c2ccccc2)nc2ccccc21)Nc1ccc2c(c1)NCC2")
"< 4.30"
